- target-or-system: MAL^TIR (Homo sapiens, UniProt P58753)
- Construct: MAL (residues 79–221); 6xHis; made in house; host or cells: E. coli BL21 (DE3)
- Sequence (P58753 79-221): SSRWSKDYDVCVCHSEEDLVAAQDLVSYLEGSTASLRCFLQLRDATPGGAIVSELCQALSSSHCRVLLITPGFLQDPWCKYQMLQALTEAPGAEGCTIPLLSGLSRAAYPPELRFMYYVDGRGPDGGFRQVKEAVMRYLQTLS
- test-method-notes: T‐Surf phage library (P8 and P3) selection against MAL^TIR, four rounds, NGS read counts
- Assay type: binding
- test-context: P8 library, selection against MAL TIR; rank by count before grouping
reported-metric: P8_MAL Rank (before)
Numbers only.

Look over these answered cases.
• LFYERLVSLMLRDTKG = 1105
• TFLGHLYNALVQAGKL = 2583

Measured P8_MAL Rank (before), `AFLYTFLNTLTHPTNF` : 1867
